- tested system: CDK7/cyclinH/MAT1 trimeric complex (Homo sapiens, UniProt P50613)
- Sequence (P50613 whole entry): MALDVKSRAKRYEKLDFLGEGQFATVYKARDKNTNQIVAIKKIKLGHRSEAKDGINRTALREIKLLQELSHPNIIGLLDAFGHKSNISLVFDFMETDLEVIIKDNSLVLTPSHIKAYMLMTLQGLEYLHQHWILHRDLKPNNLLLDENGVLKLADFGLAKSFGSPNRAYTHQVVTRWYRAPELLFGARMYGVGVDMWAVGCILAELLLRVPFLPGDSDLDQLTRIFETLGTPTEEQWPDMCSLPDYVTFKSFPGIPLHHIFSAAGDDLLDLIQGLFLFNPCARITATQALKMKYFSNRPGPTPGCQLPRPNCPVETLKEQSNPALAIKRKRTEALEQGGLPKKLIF
- Sequence (P51946 whole entry partner): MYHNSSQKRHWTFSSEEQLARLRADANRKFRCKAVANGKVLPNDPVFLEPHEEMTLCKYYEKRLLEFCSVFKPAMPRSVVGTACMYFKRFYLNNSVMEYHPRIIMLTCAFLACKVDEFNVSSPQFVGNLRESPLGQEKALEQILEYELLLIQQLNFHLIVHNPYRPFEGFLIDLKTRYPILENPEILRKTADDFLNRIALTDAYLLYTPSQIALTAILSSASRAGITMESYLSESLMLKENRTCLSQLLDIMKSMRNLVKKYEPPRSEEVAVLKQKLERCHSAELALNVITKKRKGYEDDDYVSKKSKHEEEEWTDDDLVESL
- Sequence (P51948 whole entry partner): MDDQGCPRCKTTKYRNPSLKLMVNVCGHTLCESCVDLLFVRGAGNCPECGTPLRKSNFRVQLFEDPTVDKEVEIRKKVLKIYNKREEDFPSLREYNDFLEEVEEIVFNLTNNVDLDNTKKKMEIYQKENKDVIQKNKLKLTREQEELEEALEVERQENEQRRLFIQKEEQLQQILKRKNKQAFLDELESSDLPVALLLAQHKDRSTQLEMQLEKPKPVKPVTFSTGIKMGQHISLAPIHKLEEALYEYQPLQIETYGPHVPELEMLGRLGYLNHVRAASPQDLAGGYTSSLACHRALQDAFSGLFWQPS
- method description: In vitro CDK7 assay, potency of irreversible covalent inhibitors (kinact/KI), coupled PK/LDH ADP readout at 340 nm
- applied conditions: CDK7 (20 nM enz.) (KI, μM), 20 nM enzyme
Ki overview
Numbers only here, please. The scale is µM.

CC#CC(=O)N1CC(c2nc(C)c(-c3cc4c(c(C)n3)OCc3c(N5CCOCC5)ccnc3N4)c(C)n2)C1; 0.226
C=CC(=O)N1CC[C@@H](N2CC(c3cc(C)c4c(c3)Nc3nccc(N5CCOCC5)c3CO4)C2)C1 (single isomer, unassigned) [Compound 327]; 0.0302
C=CC(=O)N1CC(N2CCC[C@@H](c3ccc4c(c3)Nc3nccc(N5CCOCC5)c3CO4)C2)C1 (single isomer, unassigned); 0.872
CC#CC(=O)N1CC(n2cc(-c3cc4c(c(C)n3)O[C@@H](C)c3c(N5CCOCC5)ccnc3N4)cn2)C1 (single isomer, unassigned); 0.0822
Cc1nc(C2CCN(C3CN(C(=O)/C=C/CN(C)C)C3)CC2)cc2c1OCc1c(-c3cnn(C)c3)ccnc1N2; 0.0301

Next, consider the following molecule.
Output reported Ki of the molecule C=CC(=O)N1CC(N2CC[C@@H](c3cc4c(c(C)n3)O[C@@H](C)c3c(N5CCOCC5)ccnc3N4)C2)C1 (single isomer, unassigned) [Compound 243] on CDK7/cyclinH/MAT1 trimeric complex (Homo sapiens, UniProt P50613). 0.0802

###

- tested system: CDK7/cyclinH/MAT1 trimeric complex (Homo sapiens, UniProt P50613)
- method description: In vitro CDK7 assay, potency of irreversible covalent inhibitors (kinact/KI), coupled PK/LDH ADP readout at 340 nm
- applied conditions: CDK7 (KI(μM)), […]; 1 mM ATP, room temperature; averaged values over all measurements
recorded endpoint: Ki
Note to self: number, then unit, no commentary.

Before answering, review these 3 worked examples.
C=CC(=O)N1CC(N2CCC(c3ccc4c(c3)Nc3nccc(N5CCOC[C@@H]5C)c3CO4)CC2)C1 (single isomer, unassigned) [Compound 32]; 0.177 µM
C=CC(=O)N1CC(N2CCC(c3ccc4c(c3)Nc3ncc(C)c(N5CCOCC5)c3CO4)CC2)C1 [Compound 37]; 0.129 µM
C=CC(=O)N1CC(N2CCC(c3ccc4c(c3)OCc3c(-c5cnn(C)c5)ccnc3N4)CC2)C1 [Compound 52]; 0.166 µM

Please give measured Ki of the following entry: C=CC(=O)N1CC(c2ncc(-c3ccc4c(c3)Nc3nccc(N5CCOCC5)c3CO4)cn2)C1 [Compound 56] 0.0673 µM

Please give measured Ki of the following entry: C=CC(=O)N1CC(N2CCC(c3ccc4c(c3)Nc3nccc(N5CCOC6(CCOCC6)C5)c3CO4)CC2)C1 [Compound 47] 0.207 µM

Please give measured Ki of the following entry: C=CC(=O)N1CC(N2[C@@H]3CC[C@H]2C[C@H](c2ccc4c(c2)Nc2nccc(N5CCOCC5)c2CO4)C3)C1 [Compound 54] 0.1 µM

###

- tested system: CDK7/cyclinH/MAT1 trimeric complex (Homo sapiens, UniProt P50613)
- method description: In vitro CDK7 assay, potency of irreversible covalent inhibitors (kinact/KI), coupled PK/LDH ADP readout at 340 nm
- applied conditions: read-out: CDK7 (20 nM enz.) (kinact/KI, M^−1*s^−1), 20 nM enzyme
recorded endpoint: kinact/KI (M⁻¹ s⁻¹)
Numbers only here, please. The scale is M⁻¹ s⁻¹.

Before answering, review these 5 worked examples.
C=CC(=O)N1CCC(N2CCN(c3cc4c(c(C)n3)OCc3c(N5CCOCC5)ccnc3N4)CC2)CC1 [Compound 389]; 1070
CC#CC(=O)N1CCC(N2CC(c3cc4c(c(C(F)(F)F)n3)O[C@@H](C)c3c(N5CCOCC5)ccnc3N4)C2)CC1 (single isomer, unassigned) [Compound 502]; 9.74
CC#CC(=O)N1CCC(N2CC(c3cc4c(c(C#N)n3)OCc3c(-c5cnn(C)c5)ccnc3N4)C2)C1 (centres unmarked) [Compound 529]; 409
C=CC(=O)N1CCC(N2CC(c3cc4c(c(C)n3)O[C@@H](C)c3c(C5CCOCC5)ccnc3N4)C2)CC1 (single isomer, unassigned) [Compound 468]; 16.5
C=CC(=O)N1CC(N2CCC(O)(c3ccc4c(c3)Nc3nccc(N5CCOCC5)c3CO4)CC2)C1 [Compound 80]; 740

Output reported kinact/KI of the molecule C#Cc1cc2c(cc1C1CCN(C3CN(C(=O)C=C)C3)CC1)Nc1nccc(N3CCOCC3)c1CO2 [Compound 175] on CDK7/cyclinH/MAT1 trimeric complex (Homo sapiens, UniProt P50613). 580

Output reported kinact/KI of the molecule C=CC(=O)N1CCC(N2CCC(c3cc4c(c(C)n3)OCc3c(N5CCOCC5)ccnc3N4)CC2=O)CC1 (centres unmarked) [Compound 476] on CDK7/cyclinH/MAT1 trimeric complex (Homo sapiens, UniProt P50613). 92.5

Output reported kinact/KI of the molecule CC#CC(=O)N1CC[C@@H](N2CC(c3cc4c(c(C5CC5)n3)O[C@@H](C)c3c(N5CCOCC5)ccnc3N4)C2)C1 (single isomer, unassigned) [Compound 472] on CDK7/cyclinH/MAT1 trimeric complex (Homo sapiens, UniProt P50613). 79.5

###

- tested system: CDK7/cyclinH/MAT1 trimeric complex (Homo sapiens)
- method description: In vitro CDK7 assay, potency of irreversible covalent inhibitors (kinact/KI), coupled PK/LDH ADP readout at 340 nm
- applied conditions: CDK7 (20 nM enz.) (KI, μM), 20 nM enzyme
Binary call on Ki with cut-off 0.07 µM: strictly below means Met, and equality or higher means Not met.

C=CC(=O)N1CC(N2CCC(c3cc(C)c4c(c3)Nc3nccc(N5CCS(=O)(=O)CC5)c3CO4)CC2)C1 [Compound 71]; Met
CC#CC(=O)N1CC(n2cc(-c3cc(C)c4c(c3)Nc3nccc(N5CCOCC5)c3CO4)cn2)C1 [Compound 333]; Not met
C=CC(=O)N1CC(N2CCC(c3cc4c(c(C)n3)O[C@H](C)c3c(C5CCOCC5)ccnc3N4)CC2)C1 (single isomer, unassigned) [compound 429]; Met

Could you please tell me whether Ki recorded for C=CC(=O)N1CC(N2CC(c3ccc4c(c3)Nc3nccc(C5CCOCC5)c3CO4)C2)C1 [Compound 167] is less than 0.07 µM? Met

Could you please tell me whether Ki recorded for C=CC(=O)Nc1ccc(-c2cc3c(cn2)OCc2c(N4CCOCC4)ccnc2N3)cc1 [Compound 160] is less than 0.07 µM? Met

###

- tested system: CDK7/cyclinH/MAT1 trimeric complex (Homo sapiens)
- method description: In vitro CDK7 assay, potency of irreversible covalent inhibitors (kinact/KI), coupled PK/LDH ADP readout at 340 nm
- applied conditions: read-out: CDK7 (20 nM enz.) (kinact/KI, M^−1*s^−1), 20 nM enzyme
Parameter class (string): assigned from measured kinact/KI. Ranges: low range (below 300 M⁻¹ s⁻¹), mid range (300 M⁻¹ s⁻¹ to below 800 M⁻¹ s⁻¹), high range (800 M⁻¹ s⁻¹ or more)

C=CC(=O)N1CC[C@@H](N2CC(c3cc4c(c(C)n3)O[C@H](C)c3c(-c5cnn(C)c5)ccnc3N4)C2)C1 (single isomer, unassigned) [Compound 482]; mid range
C=CC(=O)N1CC(N2CC[C@H](c3cc4c(c(C)n3)O[C@@H](C)c3c(N5CCOCC5)ccnc3N4)C2)C1 (single isomer, unassigned) [Compound 218]; low range
C=CC(=O)N1CC(N2CCC(c3ccc4c(c3)Nc3nccc(N5CCOCC5)c3CO4)CC2)C1 [Compound 107]; high range

// bin(item) where item = C=CC(=O)N1CCC(N2CCC(c3cc4c(c(C)n3)O[C@H](C)c3c(N5CCOCC5)ccnc3N4)CC2)CC1 (single isomer, unassigned) [Compound 406] mid range

// bin(item) where item = C=CC(=O)N1CC(N2CCC(c3ccc4c(c3)Nc3nccc(N5CCS(=O)(=NC)CC5)c3CO4)CC2)C1 [Compound 84] mid range

// bin(item) where item = C=CC(=O)N1CCC(N2CC(c3cc4c(c(C#N)n3)OCc3c(N5CCOCC5)ccnc3N4)C2)CC1 [Compound 384] low range

// bin(item) where item = CC#CC(=O)N1CC(N2CC[C@H](c3cc4c(c(C)n3)O[C@@H](C)c3c(N5CCOCC5)ccnc3N4)N(C)CC2)C1 (single isomer, unassigned) [Compound 528] low range

// bin(item) where item = C=CC(=O)N1CC(N2CCCN(C)[C@@H](c3cc(C)c4c(c3)Nc3nccc(C5CCOCC5)c3CO4)C2)C1 (single isomer, unassigned) [Compound 259] low range

// bin(item) where item = CC#CC(=O)N1CC[C@H](N2CCC(c3cc4c(c(C)n3)OCc3c(-c5cnn(C)c5)ccnc3N4)CC2)C1 (single isomer, unassigned) [Compound 304] mid range

// bin(item) where item = C=CC(=O)N1CC[C@H](N2CCC(c3ccc4c(c3)Nc3nccc(N5CCOCC5)c3CO4)CC2)C1 (single isomer, unassigned) [Compound 38] high range

// bin(item) where item = C=CC(=O)N1CC[C@H](N2CC(c3cc4c(c(C)n3)O[C@H](C)c3c(C5CCOCC5)ccnc3N4)C2)C1 (single isomer, unassigned) [Compound 422] high range

// bin(item) where item = C=CC(=O)N1CC(N2CCC(c3cc(Cl)c4c(c3)Nc3nccc(N5CCOCC5)c3CO4)CC2)C1 [Compound 29] high range
